target: SEAP-His (Homo sapiens, UniProt P05187); assay: Selectivity ELISA of humanized antibodies for human Eph receptor; assay type: binding; details: coated protein 1 nM
Sequence (P05187 23-511 limits assumed): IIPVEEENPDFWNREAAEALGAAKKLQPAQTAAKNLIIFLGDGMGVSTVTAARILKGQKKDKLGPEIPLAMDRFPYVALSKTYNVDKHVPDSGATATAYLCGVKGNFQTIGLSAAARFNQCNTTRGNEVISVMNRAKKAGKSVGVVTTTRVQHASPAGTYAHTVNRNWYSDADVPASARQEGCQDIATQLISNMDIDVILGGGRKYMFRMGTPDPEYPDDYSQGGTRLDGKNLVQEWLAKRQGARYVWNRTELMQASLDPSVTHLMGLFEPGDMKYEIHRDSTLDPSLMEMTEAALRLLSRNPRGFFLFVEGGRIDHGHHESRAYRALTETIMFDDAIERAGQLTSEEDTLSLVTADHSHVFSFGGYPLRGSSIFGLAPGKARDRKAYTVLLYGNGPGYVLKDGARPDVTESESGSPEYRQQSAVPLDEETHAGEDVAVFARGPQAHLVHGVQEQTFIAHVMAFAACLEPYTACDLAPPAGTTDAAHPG
Quantity Kind: SEAP-His: absorbance at 450 nm, percentage with respect to hEphA4-SEAP-His as 100% (%)

132 (antibody, V domains shown, synthetic humanized antibody heavy chain variable region sequence; synthetic humanized antibody light chain variable region sequence) VH: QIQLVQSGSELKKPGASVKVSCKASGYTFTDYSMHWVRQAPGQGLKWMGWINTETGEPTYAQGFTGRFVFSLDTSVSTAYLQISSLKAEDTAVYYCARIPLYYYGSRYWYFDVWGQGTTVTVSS VL: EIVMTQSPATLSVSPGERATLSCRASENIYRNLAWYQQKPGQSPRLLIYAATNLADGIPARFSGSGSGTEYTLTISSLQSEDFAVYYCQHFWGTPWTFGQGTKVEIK | 4.9
